# credit: PubChem BioAssay AID1259343

test: Mycobacterium tuberculosis growth inhibition, primary screen (AID 1259343); details: at 10 µM
Screen size: about 6,200 compounds; about 2,900 (47%) were called active. No stated cut-off is given here; in the data, active means inhibition above about 50%; inactive means the rest. So high a share suggests a set chosen from earlier hits. The list shows a part of the results.
Labels: active, inactive

- Molecule: "O=C(Nc1ccc(OCC(F)(F)F)cc1)c1cnccn1"
  Label: "inactive"
- Molecule: "CC(C)NC(=O)CC1(C(=O)Nc2ccc(-c3ccccc3)cc2)CCCC1"
  Label: "active"
- Molecule: "COC(=O)c1ccc(CNC(=O)c2ccc3c(c2)OCO3)cc1"
  Label: "active"
- Molecule: "COCc1ccc(C(=O)NC2C3CC4CC(C3)CC2C4)cc1 (stereo not drawn)"
  Label: "active"
- Molecule: "CCOCCC1(C(=O)Nc2ccc(CC)cc2)CCC1"
  Label: "active"
- Molecule: "COc1ccc(CCNC(=O)c2cnc(C)cn2)cc1OC"
  Label: "inactive"
- Molecule: "Cc1cc(Oc2ccc(C(C)C)cc2)nc(SCc2ccc(F)c(F)c2)n1"
  Label: "inactive"
- Molecule: "CN(C)c1ccc2cc(NC(=O)C3CC(=O)N(C4CCCC4)C3)ccc2n1 (stereo not drawn)"
  Label: "active"
- Molecule: "N[C@@H](CO)C(=O)Nc1ccc(Cc2ccccc2)cc1"
  Label: "active"
- Molecule: "O=c1cc(-c2ccc(F)cc2)[nH]n1-c1nc2ccccc2[nH]1"
  Label: "active"
- Molecule: "CC(C)NS(=O)(=O)Cc1ccc(CNC(=O)Nc2ccc(-c3ccccc3)cc2)cc1"
  Label: "inactive"
- Molecule: "CCCn1nc(C)c(CNc2ccc(Br)cc2)c1C"
  Label: "inactive"
- Molecule: "O=C(Nc1ccc(Oc2ccccc2)cc1)C1CC(=O)N(C2CC2)C1 (stereo not drawn)"
  Label: "active"
- Molecule: "O=C1CCC(C(=O)Nc2ccc(Oc3ccccc3)cc2)N1 (stereo not drawn)"
  Label: "inactive"
- Molecule: "O=C(Nc1nc(-c2ccc(Cl)cc2)cs1)C1CC(=O)N(C2CC2)C1 (stereo not drawn)"
  Label: "inactive"
- Molecule: "Cc1ccc(N=Nc2cn[nH]c2C)cc1"
  Label: "inactive"
- Molecule: "Oc1ccc(C=NNC(=S)NCC2CCCO2)c(O)c1 (stereo not drawn)"
  Label: "active"
- Molecule: "CN1CC(C(=O)Nc2ccc3nc(C4CC4)oc3c2)CC1=O (stereo not drawn)"
  Label: "inactive"
